molecular target: tetanus neurotoxin (TeNT), authentic tetanus holotoxin (Clostridium tetani, UniProt P04958 2-1315); experiment: GT1b-TeNT inhibition ELISA (no SDA: 1.302, 1.257); further: test concentration or dose not given here
Sequence (P04958 2-457 limits assumed, chain 1 of 2): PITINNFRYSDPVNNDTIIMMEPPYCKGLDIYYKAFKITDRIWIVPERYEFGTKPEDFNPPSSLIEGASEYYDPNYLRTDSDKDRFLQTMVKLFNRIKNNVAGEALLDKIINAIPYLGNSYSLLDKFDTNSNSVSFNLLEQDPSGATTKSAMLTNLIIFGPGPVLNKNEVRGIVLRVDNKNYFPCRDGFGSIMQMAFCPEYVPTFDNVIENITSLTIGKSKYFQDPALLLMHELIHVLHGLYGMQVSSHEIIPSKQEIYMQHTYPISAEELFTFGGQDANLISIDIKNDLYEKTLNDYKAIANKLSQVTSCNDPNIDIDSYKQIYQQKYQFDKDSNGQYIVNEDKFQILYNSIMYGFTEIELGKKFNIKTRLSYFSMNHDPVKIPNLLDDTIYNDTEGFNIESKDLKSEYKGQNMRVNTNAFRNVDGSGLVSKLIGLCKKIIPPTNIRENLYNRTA
Sequence (P04958 458-1315 limits assumed, chain 2 of 2): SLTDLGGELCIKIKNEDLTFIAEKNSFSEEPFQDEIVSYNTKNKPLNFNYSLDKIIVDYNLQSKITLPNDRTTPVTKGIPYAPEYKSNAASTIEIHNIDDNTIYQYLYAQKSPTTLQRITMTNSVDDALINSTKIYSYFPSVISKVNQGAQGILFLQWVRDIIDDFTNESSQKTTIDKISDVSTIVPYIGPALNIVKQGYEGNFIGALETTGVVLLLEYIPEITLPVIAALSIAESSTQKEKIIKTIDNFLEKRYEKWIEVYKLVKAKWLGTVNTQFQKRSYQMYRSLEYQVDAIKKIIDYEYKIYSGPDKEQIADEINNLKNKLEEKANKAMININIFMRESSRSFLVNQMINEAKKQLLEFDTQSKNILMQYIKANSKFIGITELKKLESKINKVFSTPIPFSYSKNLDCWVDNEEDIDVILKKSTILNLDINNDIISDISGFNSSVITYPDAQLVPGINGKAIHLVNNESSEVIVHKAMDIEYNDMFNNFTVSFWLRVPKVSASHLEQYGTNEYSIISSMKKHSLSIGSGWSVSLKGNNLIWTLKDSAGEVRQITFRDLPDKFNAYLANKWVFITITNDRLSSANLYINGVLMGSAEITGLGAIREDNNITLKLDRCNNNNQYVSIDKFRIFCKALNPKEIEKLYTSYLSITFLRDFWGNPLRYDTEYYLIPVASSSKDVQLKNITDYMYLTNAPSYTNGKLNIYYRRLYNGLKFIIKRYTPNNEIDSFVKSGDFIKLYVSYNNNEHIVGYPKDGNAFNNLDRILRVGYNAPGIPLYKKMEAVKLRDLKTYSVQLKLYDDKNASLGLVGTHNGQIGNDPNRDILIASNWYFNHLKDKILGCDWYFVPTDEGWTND
Would you mind telling me the reported absorbance at 450 nm of each entry?
Report only the number, with the unit A450 understood.

Query :: Which absorbance at 450 nm value is on record for SVT13 (VHH) VHH: QVQLQESGGGLVQAGGSLRLSCAVSGTNFDDYAIGWFRQAPGKRREAVACISKTDGVTRYGNGVKGRFTISSDEARNTVFLQMNDLKDEDTAIYYCIGDFKSCGMGYKPIDHWGRGIQVTVSS ?
Result :: 0.196

Query :: What do you have for SVT25 (VHH) VHH: QVQLQESGGGLVQAGGSLRLSCAASGRTISVYAMGWFRQAPGKQREFVAAISRSDNTYYTDSVKGRFTISRDNVKNTLYLQMNSLKPEETAVYYCAADPNLMYETKWKYRALEAWGQGTLVTVSS ?
Result :: 0.139

Query :: What do you have for SVT06 (VHH) VHH: QVQLQESGGGSVQAGGSLRLSCTASELSYDDYTIAWFRRAAGEGRVEDGEGVASITKSYDRAYDNKINYGHSVKGRFTISRDNAKNTVYLQMTDLLPSDTAVYYCALDITPPGGVGASLTEGFLFDYWGQGTQVTVSS ?
Result :: 0.72

Query :: What do you have for SVT16 (VHH) VHH: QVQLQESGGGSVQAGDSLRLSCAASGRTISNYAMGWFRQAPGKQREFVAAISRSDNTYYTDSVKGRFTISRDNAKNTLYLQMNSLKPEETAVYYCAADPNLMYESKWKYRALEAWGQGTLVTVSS ?
Result :: 0.12

Query :: What do you have for SVT08 (VHH) VHH: QVQLQESGGGSVQAGGSLRLSCTASEFSYNDYTIAWFRRAAGKGRVEDGEGVASITTSYDRAYDNRIHYGDSVKGRFTISRDNAKNTVYLQMTNLNPSDTAVYYCGLDITPPGGIGASLTEGFLFDYWGQGTQVTVSS ?
Result :: 0.746

Query :: What do you have for SVT29 (VHH) VHH: QVQLQESGGGLVQTGGSLTLSCRAYGRAFDNYHFGWFRQAPGKDREFVASISWKGGSTYRANFALGRFTSSVNRGESSVYLHMSGLTPEDTATYYCAAHDGGDWNYHTGMDYWGKGILVTVSS ?
Result :: 0.152

Query :: What do you have for SVT03 (VHH) VHH: QVQLQQSGGGSVQTGDSLTLSCTASGGSLNSYFVGWFRQSGGKEREFVSVIARTGRSTSYADSVKGRFTISRDNAANTVFLTMNNLRPDDTAIYYCAAVGRPGVLHLTQSYDYWGQGTQVTVSS ?
Result :: 1.29

Query :: What do you have for SVT22 (VHH) VHH: QVQLQESGGGLVQAGESLRLSCTASGISFDDYAIGWFRQAPGQQRKGVACISKADGRTDYLGSVKGRFTLSTDNTKNTVHLQMNNLKPEDTALYTCAAEYKSCGMGYKPIDYWGQGMQVTVSS ?
Result :: 0.137

Query :: What do you have for SVT02 (VHH) VHH: QVQLQQSGGGSVQAGGSLRLSCVGPQRTFSTYGMGWFRQAPGKEREFVAGINYKGDTTYYADSVKGRFTISRDNAKNTLYLQMDSLKPEDRAVYQCARKGGLGGDYRDAGQYRYWGQGTQVTVSS ?
Result :: 1.34

Query :: What do you have for SVT05 (VHH) VHH: QVQLQESGGGLVQPGGSLRLSCSASGFSFTDDYGIGWFRSGPGKGREAVAPIADREAVAAIALSDGNTYYSASAKGRFTISRDNAKSTAYLQMNNLKPEDTATYYCAADFWGYGMSWPMATLWEYWGQGIQVTVSS ?
Result :: 0.985

Query :: What do you have for SVT34 (VHH) VHH: QVQLQESGGGLVQPGGSLRLSCAASGRTISSYAMGWFRQAPGKQREFVAAISRSGGNTYYTDSVKGRFIISRDNAKNTLYLQMNNLKPEETAVYYCAADPNLMYESKWKYRALEAWGQGTLVTVSS ?
Result :: 0.117

Query :: What do you have for SVT31 (VHH) VHH: QVQLQESGGGSVQAGGSLTLSCAASEFSYNDYTIAWFRRAAGKGRVEDGEGVASITKSYDRAYDNRIHYADSVKGRFTISRDNAKNTVYLQMTSLNPSDTAVYYCALDITPPGGIGASLTEGFLFDYWGQGTQVTVSS ?
Result :: 0.105

Query :: What do you have for SVT15 (VHH) VHH: QVQLQESGGGLVQTGGSLRLSCRASGRAFANYHFGWFRQAPGKDREFVASISWKGGSTYYANFALGRFTSSVDRAESSVYLQMSGLTPEDTATYYCAAHDGGDWNYHTGMDYWGKGILVTVSS ?
Result :: 0.19

Query :: What do you have for SVT20 (VHH) VHH: QVQLQQSGGGLVQAGGSLRLSCAASGRTMSSYAMGWFRQAPGKQREFVAAISRSGGNTYYTDSVKGRFTISRDNAKNTLYLQMNSLKPEETAVYYCAADPNLMYESKWKYRALEAWGQGTLVTVSS ?
Result :: 0.132
